# System: MES-SA cells
# assay-explanation: Cell growth inhibition (resazurin, 48 hours), MES-SA
# test-settings: Homo sapiens, MES-SA, read-out: EC50 (nM), mean
metric-name: EC50 (nM)
Your answer is read as nM, so omit the unit and give the number.

Let me know recorded EC50 for C[C@@]12OC(=O)[C@]1([C@@H](O)[C@@H]1C=CCCC1)NC(=O)[C@@H]2CCCl [Formula II-16, Salinosporamide A] , thanks.
20

* * *

# System: MIA PaCa-2 cells
# assay-explanation: Cell growth inhibition (resazurin, 48 hours), MIA PaCa-2
# Format: cell-based
# test-settings: Table 2, MIA PaCa-2, human pancreatic carcinoma, read-out: EC50 (nM), mean ± SD
metric-name: EC50 (nM)
The reply should be a number in nM, with the unit left off.

For the compound C[C@@]12OC(=O)[C@]1([C@@H](O)[C@@H]1C=CCCC1)NC(=O)[C@@H]2CCCl [Formula II-16, Salinosporamide A] , report EC50.
46

* * *

# study-target: CYP3A4 (Homo sapiens, UniProt P08684)
# Sequence (P08684 whole entry): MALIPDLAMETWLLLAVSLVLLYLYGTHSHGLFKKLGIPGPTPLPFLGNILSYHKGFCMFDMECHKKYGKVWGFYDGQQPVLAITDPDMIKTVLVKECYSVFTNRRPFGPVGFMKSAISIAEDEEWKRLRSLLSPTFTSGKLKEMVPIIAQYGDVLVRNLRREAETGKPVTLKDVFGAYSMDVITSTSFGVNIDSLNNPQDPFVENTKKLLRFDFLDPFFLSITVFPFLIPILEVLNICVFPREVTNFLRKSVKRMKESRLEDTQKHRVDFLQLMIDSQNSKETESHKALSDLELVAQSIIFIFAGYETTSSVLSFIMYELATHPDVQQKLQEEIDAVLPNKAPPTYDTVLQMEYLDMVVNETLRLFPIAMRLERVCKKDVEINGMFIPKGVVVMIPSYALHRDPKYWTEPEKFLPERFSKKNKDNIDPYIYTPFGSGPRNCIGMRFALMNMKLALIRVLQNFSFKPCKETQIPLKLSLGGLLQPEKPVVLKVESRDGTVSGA
# assay-explanation: Preliminary P450 inhibition screen, CYP3A4
metric-name: inhibition at 10 µM (%)
Express your answer in %, writing the number without its unit.

For the compound C[C@@]12OC(=O)[C@]1([C@@H](O)[C@@H]1C=CCCC1)NC(=O)[C@@H]2CCCl [Formula II-16, Salinosporamide A] , give its reported inhibition at 10 µM.
6

* * *

# Test system: MDA-MB-231 cells
# assay-explanation: Cell growth inhibition (resazurin, 48 hours), MDA-MB-231
# Format: cell-based
# test-settings: Homo sapiens, MDA-MB-231, 48 h
metric-name: EC50 (nM)
// note: answer is a bare numeric in nM

Recall the reported EC50 of C[C@@]12OC(=O)[C@]1([C@@H](O)[C@@H]1C=CCCC1)NC(=O)[C@@H]2CCCl [Formula II-16, Salinosporamide A] on MDA-MB-231 cells and write it down.
67

* * *

# study-target: chymotrypsin-like activity of rabbit muscle 20S proteasomes (Oryctolagus cuniculus)
# Sequence (G1T4Q9 1-263): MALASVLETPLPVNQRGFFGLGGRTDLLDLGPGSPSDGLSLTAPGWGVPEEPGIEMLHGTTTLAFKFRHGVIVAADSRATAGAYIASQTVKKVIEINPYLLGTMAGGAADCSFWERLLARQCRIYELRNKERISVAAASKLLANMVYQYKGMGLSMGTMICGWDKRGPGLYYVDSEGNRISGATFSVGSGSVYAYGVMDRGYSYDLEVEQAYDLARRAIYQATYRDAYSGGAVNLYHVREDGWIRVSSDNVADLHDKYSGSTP
# assay-explanation: Inhibition of chymotrypsin-like activity of purified rabbit muscle 20S proteasome (suc-LLVY-AMC)
# Type: biochemical
# test-settings: first experiment, Example 21; read-out: EC50, average value in the 20S proteasome assay (FIG. 27)
metric-name: pEC50
The read-out pEC50 is expressed as -log10 of concentration in moles per litre.

Provide pEC50 value for the following molecule: CC(C)[C@H](O)[C@@]12NC(=O)[C@H](C)[C@@H]1OC2=O [Omuralide, reference compound]
7.31

* * *

# assay-explanation: in vitro
# test-settings: mouse
metric-name: viability at […] (%)
Give the value in % but do not write % after it.

Dear colleague, please send me the reported viability at […] for C[C@@]12OC(=O)[C@]1([C@@H](O)[C@@H]1C=CCCC1)NC(=O)[C@@H]2CCCl [Formula II-16, Salinosporamide A] when you can.
96

* * *

# Test system: NCI-H292 cells
# assay-explanation: Cell growth inhibition (resazurin, 48 hours), NCI-H292
# Type: cell-based, human
# test-settings: Homo sapiens, NCI-H292, Table 13; NCI-H292
Below is a list of entries, each paired with its recorded EC50 value.

The cases that follow already have their EC50 on record.
{"columns": ["mol", "study-target", "EC50"],
 "data": [
  ["C[C@@]12OC(=O)[C@]1([C@@H](O)[C@@H]1C=CCCC1)NC(=O)[C@@H]2CCBr", "NCI-H292 cells", "29 nM"],
  ["CC[C@H]1C(=O)N[C@@]2([C@@H](O)C3CCCCC3)C(=O)O[C@@]12C", "NCI-H292 cells", "> 20000 nM"],
  ["C[C@@]12OC(=O)[C@]1([C@@H](O)C1CCCCC1)NC(=O)[C@@H]2CCBr", "NCI-H292 cells", "192 nM"],
  ["C[C@@]12OC(=O)[C@]1([C@@H](O)C1CCCCC1)NC(=O)[C@@H]2CCCl", "NCI-H292 cells", "322 nM"],
  ["CC[C@H]1C(=O)N[C@@]2([C@@H](O)[C@@H]3C=CCCC3)C(=O)O[C@@]12C", "NCI-H292 cells", "> 20000 nM"]
]}

Now consider a different compound.
Complete the entry with EC50 for C[C@@]12OC(=O)[C@]1([C@@H](O)[C@@H]1C=CCCC1)NC(=O)[C@@H]2CCI
31 nM
